Where these numbers come from: patent US20250281457A1

test: Plasma pharmacokinetics with loading dose and weekly or twice weekly maintenance dosing, fed (Example 5); assay type: in vivo, human; conditions: human, plasma, oral, 450 mg, Panel I (450 mg BID Days 1-2, then 900 mg Q7D; SF2a/b, fed), Day 2; read-out: Median tmax (min-max)
observable: Tmax

{"columns": ["compound", "observable", "result"],
 "data": [
  ["COc1cc(NC(C(=O)c2c[nH]c3ccc(OC(F)(F)F)cc23)c2ccc(Cl)cc2OC)cc(S(C)(=O)=O)c1 (stereo not shown)", "Tmax", "5.5 h"]
]}

====

assay: Plasma pharmacokinetics with loading dose and weekly or twice weekly maintenance dosing, fed (Example 5); format: in vivo, human; settings: human, plasma, oral, Panel II (450 mg BID Days 1-2, then 450 mg Q3D/Q4D; SF2a/b, fed), Day 1; read-out: Mean AUCτ (SD)

{"columns": ["compound", "AUC [µg·h/mL]"],
 "data": [
  ["COc1cc(NC(C(=O)c2c[nH]c3ccc(OC(F)(F)F)cc23)c2ccc(Cl)cc2OC)cc(S(C)(=O)=O)c1 (stereo not shown)", 15.5]
]}

====

test: Effect of food on plasma pharmacokinetics after single oral dose of SF2a/b (Example 2); type: in vivo, human; conditions: both sexes, human, plasma, oral, 50 mg, Treatment I: single 50 mg (SF2a), fed, standardized breakfast; read-out: AUClast, Geo. Mean

{"columns": ["molecule", "unit tag", "AUC(0-t)"],
 "data": [
  ["COc1cc(NC(C(=O)c2c[nH]c3ccc(OC(F)(F)F)cc23)c2ccc(Cl)cc2OC)cc(S(C)(=O)=O)c1 (stereo not shown) [Compound (a)]", "ng·h/mL", 21100]
]}

====

assay: Plasma pharmacokinetics with loading dose and weekly or twice weekly maintenance dosing, fed (Example 5); format: in vivo, human; conditions: human, plasma, oral, Panel IV (150 mg BID Days 1-2, then 150 mg Q3D/Q4D; SF2a/b, fed), Day 2; read-out: Mean Cmax (SD)

{"columns": ["molecule", "unit tag", "Cmax"],
 "data": [
  ["COc1cc(NC(C(=O)c2c[nH]c3ccc(OC(F)(F)F)cc23)c2ccc(Cl)cc2OC)cc(S(C)(=O)=O)c1 (stereo not shown)", "ng/mL", 1600]
]}

====

assay: Effect of food on plasma pharmacokinetics after single oral dose of SF2a/b (Example 2); type: in vivo, human; conditions: both sexes, human, plasma, oral, 800 mg, Treatment E: single 800 mg (SF2b), fed, standardized breakfast; read-out: t1/2, term, Median (converted)
observable: half-life

{"columns": ["compound", "observable", "result"],
 "data": [
  ["COc1cc(NC(C(=O)c2c[nH]c3ccc(OC(F)(F)F)cc23)c2ccc(Cl)cc2OC)cc(S(C)(=O)=O)c1 (stereo not shown)", "half-life", "150 h"]
]}

====

experiment: Plasma pharmacokinetics with loading dose and weekly or twice weekly maintenance dosing, fed (Example 5); assay type: in vivo, human; details: human, plasma, oral, 450 mg, Panel I (450 mg BID Days 1-2, then 900 mg Q7D; SF2a/b, fed), Day 2; read-out: Mean Cmax (SD)
observable: Cmax (ng/mL)

{"columns": ["molecule", "result number"],
 "data": [
  ["COc1cc(NC(C(=O)c2c[nH]c3ccc(OC(F)(F)F)cc23)c2ccc(Cl)cc2OC)cc(S(C)(=O)=O)c1 (stereo not shown)", 5080]
]}
